Test system: HEK-293T
PROTOCOL: Multiplex assay against HEK293T
Format: toxicity, cell-based
EXPERIMENTAL PARAMETERS: human, 24 h, 10 µM, compound concentration 10 uM, replicate 2
Measured Population Normal (%), listed per entry.
Quick reminder: number only, in %, skip the unit.

Worked set:
| MOL | Population Normal (%) |
| --- | --- |
| C[C@H]1[C@H]2CC[C@H]3[C@@H]4CC=C5C[C@@H](N(C)C)CC[C@]5(C)[C@H]4CC[C@]23CN1C | 90 |
| C[C@@H]1C[C@H]2[C@@H]3CCC4=CC(=O)C=C[C@]4(C)[C@@]3(F)[C@@H](O)C[C@]2(C)[C@@]1(O)C(=O)CO | 84 |
| O=C(O)Cc1ccccc1Nc1c(Cl)cccc1Cl | 90 |
| COc1c(C)cc(NC(=O)c2nn(Cc3ccc(F)cc3)c3c2CN(C(=O)c2ccc[nH]2)C[C@]3(C)C(N)=O)cc1C | 84 |
| N#Cc1c(N)nc(SCc2csc(-c3ccc(Cl)cc3)n2)c(C#N)c1-c1ccc(OCCO)cc1 | 86 |

Shifting focus to the molecule that follows.
Given the entry `COc1cc(C(=O)N(CCCc2ccccc2)Cc2ccc(CC(=O)O)cc2)cc(OC)c1C` , what Population Normal (%) was observed with HEK-293T?
93

Origin of measurements: ChEMBL document CHEMBL5058577
